The origin of these recorded values is the supplement of paper PMC11003180.

# System: MDCK p60AmotL2-inducible + doxycycline (p60AmotL2 expressing)
# Procedure Summary: drug sensitivity score (DSS) from 5-dose viability curve (DSS (area-based score, 0 = no response)); higher = more sensitive (stronger viability inhibition); extreme values may be limits of the assay
# Measurement Conditions: doxycycline: 10 ng/mL; 72 h
The recorded drug sensitivity score of each item maps onto one of these classes: zone 1 (below 0.7), zone 2 (0.7 to below 5), zone 3 (5 or more)

[
  {
    "Compound": "CN(C)CCCOc1ccc(-c2ccc3ncc4c(c3c2)n(C2CCOCC2)c(=O)n4C)cn1",
    "Discrete Label": "zone 2"
  },
  {
    "Compound": "CC(=O)O[C@@]12CO[C@@H]1C[C@H](O)[C@@]1(C)C(=O)[C@H](O)C3=C(C)[C@@H](OC(=O)[C@H](O)[C@@H](NC(=O)OC(C)(C)C)c4ccccc4)C[C@@](O)([C@@H](OC(=O)c4ccccc4)[C@H]21)C3(C)C",
    "Discrete Label": "zone 3"
  },
  {
    "Compound": "CC(C)(C)c1cc(NC(=O)Nc2ccc(-c3cn4c(n3)sc3cc(OCCN5CCOCC5)ccc34)cc2)no1",
    "Discrete Label": "zone 2"
  },
  {
    "Compound": "COc1cccc(OCCCN)c1-c1cc(Nc2cnc(C#N)cn2)n[nH]1",
    "Discrete Label": "zone 2"
  },
  {
    "Compound": "Nc1ccn([C@@H]2O[C@H](CO)[C@@H](O)C2(F)F)c(=O)n1",
    "Discrete Label": "zone 3"
  },
  {
    "Compound": "NC(=O)Nc1cc(-c2cccc(F)c2)sc1C(=O)N[C@H]1CCCNC1",
    "Discrete Label": "zone 1"
  },
  {
    "Compound": "COc1cc2c(Nc3ccc(Cl)c(Cl)c3F)ncnc2cc1OC[C@@H]1C[C@@H]2CN(C)C[C@@H]2C1",
    "Discrete Label": "zone 3"
  },
  {
    "Compound": "O=C(CCNC(=O)c1ccc(OC(F)(F)F)cc1)N[C@@H]1CCCc2ccccc21",
    "Discrete Label": "zone 3"
  },
  {
    "Compound": "CNC(=O)c1cccc2cc(Oc3ccnc4cc(OCC5(N)CC5)c(OC)cc34)ccc12",
    "Discrete Label": "zone 2"
  },
  {
    "Compound": "Clc1ccccc1C(c1ccccc1)(c1ccccc1)n1cccn1",
    "Discrete Label": "zone 1"
  },
  {
    "Compound": "CCN1CCN(c2ccc(Nc3cc(N(C)C(=O)Nc4c(Cl)c(OC)cc(OC)c4Cl)ncn3)cc2)CC1",
    "Discrete Label": "zone 1"
  },
  {
    "Compound": "CCn1c(-c2nonc2N)nc2c(C#CC(C)(C)O)ncc(OC[C@H]3CCCNC3)c21",
    "Discrete Label": "zone 1"
  },
  {
    "Compound": "C[C@@H]1C=C2C(=O)O[C@@H]3CC[C@H](C1)[C@]23O",
    "Discrete Label": "zone 2"
  },
  {
    "Compound": "CCc1c2c(nc3ccc(O)cc13)-c1cc3c(c(=O)n1C2)COC(=O)[C@]3(O)CC",
    "Discrete Label": "zone 3"
  },
  {
    "Compound": "C[C@H]1O[C@@H](O[C@H]2[C@@H](O)C[C@H](O[C@H]3[C@@H](O)C[C@H](O[C@H]4CC[C@@]5(C)[C@H](CC[C@@H]6[C@@H]5C[C@@H](O)[C@]5(C)[C@@H](C7=CC(=O)OC7)CC[C@]65O)C4)O[C@@H]3C)O[C@@H]2C)C[C@H](O)[C@@H]1O",
    "Discrete Label": "zone 3"
  },
  {
    "Compound": "CNC(=O)c1ccc(N2C(=S)N(c3ccc(C#N)c(C(F)(F)F)c3)C(=O)C2(C)C)cc1F [Enzalutamide]",
    "Discrete Label": "zone 1"
  },
  {
    "Compound": "Cc1c(C(=O)Nc2ccc(N3C[C@@H](C)O[C@@H](C)C3)nc2)cccc1-c1ccc(OC(F)(F)F)cc1",
    "Discrete Label": "zone 1"
  },
  {
    "Compound": "N#CC1(c2ccc(NC(=O)c3cccnc3NCc3ccncc3)cc2)CCCC1",
    "Discrete Label": "zone 1"
  },
  {
    "Compound": "Cc1c(-c2c(-c3ccc(F)o3)sc3ncnc(O[C@H](Cc4ccccc4OCc4ccnn4CC(F)(F)F)C(=O)O)c23)ccc(OCCN2CCN(C)CC2)c1Cl",
    "Discrete Label": "zone 1"
  },
  {
    "Compound": "CC1=C2C[C@H]3[C@@H](CC[C@@H]4C[C@H](NS(C)(=O)=O)CC[C@@]43C)[C@@H]2CC[C@@]2(C1)O[C@@H]1C[C@H](C)CN[C@H]1[C@H]2C",
    "Discrete Label": "zone 2"
  },
  {
    "Compound": "O=C(c1ccc(F)c(F)c1Nc1ccc(I)cc1F)N1CC(O)([C@@H]2CCCCN2)C1",
    "Discrete Label": "zone 3"
  },
  {
    "Compound": "CO[C@@H]1[C@H](N(C)C(=O)c2ccccc2)C[C@H]2O[C@]1(C)n1c3ccccc3c3c4c(c5c6ccccc6n2c5c31)C(=O)NC4",
    "Discrete Label": "zone 3"
  },
  {
    "Compound": "CN(C)c1cc2c(cc1Sc1nc3c(N)nccc3n1CCNCC(C)(C)C)OCO2",
    "Discrete Label": "zone 3"
  },
  {
    "Compound": "C=C(c1ccc(C(=O)O)cc1)c1cc2c(cc1C)C(C)(C)CCC2(C)C",
    "Discrete Label": "zone 1"
  },
  {
    "Compound": "Cc1cnc(Nc2ccc(OCCN3CCCC3)cc2)nc1Nc1cccc(S(=O)(=O)NC(C)(C)C)c1",
    "Discrete Label": "zone 3"
  },
  {
    "Compound": "Cn1ncnc1[C@H]1c2n[nH]c(=O)c3cc(F)cc(c23)N[C@@H]1c1ccc(F)cc1",
    "Discrete Label": "zone 2"
  }
]
